These measurements were taken from ChEMBL document CHEMBL5291721.

Biological target: Motilin receptor (Homo sapiens); further: assay procedure not described here
Sequence (O43193 whole entry): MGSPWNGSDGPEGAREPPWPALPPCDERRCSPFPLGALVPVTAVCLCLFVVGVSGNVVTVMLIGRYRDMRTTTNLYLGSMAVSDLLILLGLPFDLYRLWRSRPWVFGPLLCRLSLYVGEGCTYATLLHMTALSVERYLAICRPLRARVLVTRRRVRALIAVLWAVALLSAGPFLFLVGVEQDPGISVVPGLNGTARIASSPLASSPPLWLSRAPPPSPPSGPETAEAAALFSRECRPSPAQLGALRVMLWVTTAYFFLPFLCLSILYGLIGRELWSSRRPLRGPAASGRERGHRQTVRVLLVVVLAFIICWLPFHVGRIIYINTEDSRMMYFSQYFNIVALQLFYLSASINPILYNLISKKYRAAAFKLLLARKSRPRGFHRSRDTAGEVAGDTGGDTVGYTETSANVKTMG
Provide the recorded AC50 for the entries that follow.

Exam item: Tell me AC50 of OCCN1CCN(CC/C=C2/c3ccccc3Sc3ccc(Cl)cc32)CC1 when tested on Motilin receptor (Homo sapiens). Further: assay procedure not described here.
Marked response: > 10 µM

Exam item: Give AC50 for this entry on Motilin receptor (Homo sapiens): CCCCCCNC(=O)n1cc(F)c(=O)[nH]c1=O
Marked response: > 30 µM

Exam item: Tell me AC50 of CN(C)c1cc(NC(=O)CNC(C)(C)C)c(O)c2c1C[C@H]1C[C@H]3[C@H](N(C)C)C(O)=C(C(N)=O)C(=O)[C@@]3(O)C(O)=C1C2=O when tested on Motilin receptor (Homo sapiens). Further: assay procedure not described here.
Marked response: > 30 µM

Exam item: Enter measured AC50, system Motilin receptor (Homo sapiens), for the molecule shown: COc1c(O[C@@H]2O[C@H](CO)[C@@H](O)[C@H](O)[C@H]2O)cc2c(c1OC)-c1ccc(SC)c(=O)cc1[C@@H](NC(C)=O)CC2 [THIOCOLCHICOSIDE]; further: assay procedure not described here
Marked response: > 30 µM

Exam item: Report the value of AC50 obtained on Motilin receptor (Homo sapiens) for CCCN(CC)C(CC)C(=O)Nc1c(C)cccc1C (stereo not drawn) .
Marked response: > 30 µM

Exam item: System Motilin receptor (Homo sapiens). Read-out AC50. Item N#C[C@@H]1CCCN1C(=O)CNC12CC3CC(CC(O)(C3)C1)C2 . Report value. Further: assay procedure not described here.
Marked response: > 10 µM

Exam item: Param request: AC50 | system Motilin receptor (Homo sapiens) | item CCOC(=O)Nc1ccc2c(c1)N(C(=O)CCN1CCOCC1)c1ccccc1S2; further: assay procedure not described here
Marked response: > 30 µM

Exam item: Specify the recorded AC50 for CC(/C=C1\SC(=S)N(CC(=O)O)C1=O)=C\c1ccccc1 , system: Motilin receptor (Homo sapiens). Further: assay procedure not described here.
Marked response: > 30 µM

###

Biological target: Estrogen receptor (Homo sapiens, UniProt P03372); further: assay procedure not described here
Sequence (P03372 whole entry): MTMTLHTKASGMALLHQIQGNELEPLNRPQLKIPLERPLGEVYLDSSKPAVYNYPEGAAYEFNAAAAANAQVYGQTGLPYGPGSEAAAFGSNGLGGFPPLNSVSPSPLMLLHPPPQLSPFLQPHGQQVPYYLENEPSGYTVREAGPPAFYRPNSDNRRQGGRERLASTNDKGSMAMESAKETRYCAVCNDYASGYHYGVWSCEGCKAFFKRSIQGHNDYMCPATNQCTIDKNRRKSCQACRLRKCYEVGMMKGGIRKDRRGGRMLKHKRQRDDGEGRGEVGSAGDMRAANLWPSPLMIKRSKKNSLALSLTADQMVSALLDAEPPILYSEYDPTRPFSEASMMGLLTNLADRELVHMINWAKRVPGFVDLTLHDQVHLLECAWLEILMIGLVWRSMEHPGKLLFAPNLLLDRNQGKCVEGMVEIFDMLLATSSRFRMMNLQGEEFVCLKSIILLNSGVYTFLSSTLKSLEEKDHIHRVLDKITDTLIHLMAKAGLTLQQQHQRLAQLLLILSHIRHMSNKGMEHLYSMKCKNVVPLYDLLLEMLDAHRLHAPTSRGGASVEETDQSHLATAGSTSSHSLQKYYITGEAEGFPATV
Format: functional
assay-metric: AC50

Exam item: State its AC50: CC[C@H]1OC(=O)[C@H](C)[C@@H](O[C@H]2C[C@@](C)(OC)[C@@H](O)[C@H](C)O2)[C@H](C)[C@@H](O[C@@H]2O[C@H](C)C[C@H](N(C)C)[C@H]2O)[C@](C)(O)C[C@@H](C)/C(=N\OCOCCOC)[C@H](C)[C@@H](O)[C@]1(C)O [ROXITHROMYCIN]
Marked response: > 30 µM

Exam item: Please give measured AC50 of the following entry: C#Cc1cccc(Nc2ncnc3cc(OCCOC)c(OCCOC)cc23)c1 [ERLOTINIB]
Marked response: > 30 µM

Exam item: Quickly give me recorded AC50 for CCc1oc2ccccc2c1C(=O)c1cc(Br)c(O)c(Br)c1 [BENZBROMARONE]
Marked response: > 30 µM

###

Record form. Attribute: AC50. Fill in for each entry.
Target: Prostaglandin G/H synthase 1 (Rattus norvegicus, UniProt Q63921); further: assay procedure not described here
Sequence (Q63921 whole entry): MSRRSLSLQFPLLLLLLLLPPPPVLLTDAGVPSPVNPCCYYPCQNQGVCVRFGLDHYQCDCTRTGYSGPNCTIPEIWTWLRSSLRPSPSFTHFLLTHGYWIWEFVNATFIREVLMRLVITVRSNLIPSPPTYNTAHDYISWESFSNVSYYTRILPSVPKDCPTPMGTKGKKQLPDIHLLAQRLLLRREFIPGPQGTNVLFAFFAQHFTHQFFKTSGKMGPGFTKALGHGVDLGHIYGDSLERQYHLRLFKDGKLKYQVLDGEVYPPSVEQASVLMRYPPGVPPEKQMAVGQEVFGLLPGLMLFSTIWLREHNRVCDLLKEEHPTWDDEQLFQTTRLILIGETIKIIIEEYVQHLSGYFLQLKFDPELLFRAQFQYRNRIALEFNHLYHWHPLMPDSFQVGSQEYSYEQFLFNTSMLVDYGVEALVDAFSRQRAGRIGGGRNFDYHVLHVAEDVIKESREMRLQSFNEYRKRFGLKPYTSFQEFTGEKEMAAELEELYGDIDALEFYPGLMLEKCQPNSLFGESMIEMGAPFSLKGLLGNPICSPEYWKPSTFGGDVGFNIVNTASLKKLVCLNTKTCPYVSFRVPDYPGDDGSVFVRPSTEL
Type: functional

Exam item: Let me know recorded AC50 for CN1c2ccccc2C(NCCCCCCC(=O)O)c2ccc(Cl)cc2S1(=O)=O (centres undefined) , thanks.
Marked response: > 30 µM

Exam item: Retrieve AC50 measured for CCCC[C@H](C)C[C@H](O)/C=C/[C@H]1[C@H](O)CC(=O)[C@@H]1CCCC/C=C/C(=O)O and print it.
Marked response: > 30 µM

Exam item: Check the records and state AC50 for CC(=O)Nc1c(I)c(C(=O)N[C@H]2C(O)O[C@H](CO)[C@@H](O)[C@@H]2O)c(I)c(N(C)C(C)=O)c1I (some centres undefined) [METRIZAMIDE]
Marked response: > 10 µM

Exam item: Provide measured AC50 value, entry: CCCC(C)(COC(N)=O)COC(=O)NC(C)C (centres undefined)
Marked response: > 30 µM

Exam item: Please give the documented AC50 of CC(=O)/N=c1/sc(S(N)(=O)=O)nn1C [METHAZOLAMIDE]
Marked response: > 10 µM

Exam item: Hello, please tell me recorded AC50 for this one: CC(=O)OCC(CCn1cnc2cnc(N)nc21)COC(C)=O
Marked response: > 30 µM

Exam item: Output measured AC50 for this item: CCC(C)(Oc1ccc(C2(c3ccc(OC(C)(CC)C(=O)O)cc3)CCCCC2)cc1)C(=O)O (centres undefined) [CLINOFIBRATE]
Marked response: > 30 µM

Exam item: Give the reported AC50 for this compound. COCCCOc1ccnc(C[S+]([O-])c2nc3ccccc3[nH]2)c1C (centres undefined)
Marked response: > 30 µM

Exam item: Identify the reported AC50 for the following entry. C=CC(N)CCC(=O)O (centres undefined)
Marked response: > 10 µM

Exam item: Let me know recorded AC50 for N#Cc1ccccc1-c1cc(-c2ccccn2)cn(-c2ccccc2)c1=O , thanks.
Marked response: > 30 µM

Exam item: Given O=c1oc2ccccc2c(O)c1Cc1c(O)c2ccccc2oc1=O , respond with its AC50.
Marked response: > 30 µM

Exam item: Return AC50 (reported value) for this compound: COC(=O)[C@H](c1ccccc1Cl)N1CCc2sccc2C1
Marked response: > 30 µM

Exam item: Please list AC50 recorded for the compound CCOC(=O)Nc1ccc2c(c1)N(C(=O)CCN1CCOCC1)c1ccccc1S2
Marked response: > 30 µM

Exam item: Output measured AC50 for this item: CC(/C=C1\SC(=S)N(CC(=O)O)C1=O)=C\c1ccccc1
Marked response: > 30 µM

Exam item: Give the reported value of AC50 for this record: CCCN(CC)C(CC)C(=O)Nc1c(C)cccc1C (centres undefined)
Marked response: > 30 µM

Exam item: // Input: CNCC[C@@H](Oc1ccccc1C)c1ccccc1 . Output its AC50 only.
Marked response: > 30 µM

Exam item: Give recorded AC50. CC(=O)S[C@@H]1CC2=CC(=O)CC[C@]2(C)[C@H]2CC[C@@]3(C)[C@@H](CC[C@@]34CCC(=O)O4)[C@H]12
Marked response: > 30 µM

Exam item: Item CC(=N)N1CC[C@H](SC2=C(C(=O)O)N3C(=O)[C@H]([C@@H](C)O)[C@H]3C2)C1 : provide AC50
Marked response: 5.1 µM

Exam item: Give a short answer stating reported AC50 for O=C1CN=C(c2ccccc2)c2cc(Cl)ccc2N1 .
Marked response: > 30 µM

###

For each record, write down the corresponding AC50.
Molecular target: 5-hydroxytryptamine receptor 2B (Homo sapiens); further: assay procedure not described here
Sequence (P41595 whole entry): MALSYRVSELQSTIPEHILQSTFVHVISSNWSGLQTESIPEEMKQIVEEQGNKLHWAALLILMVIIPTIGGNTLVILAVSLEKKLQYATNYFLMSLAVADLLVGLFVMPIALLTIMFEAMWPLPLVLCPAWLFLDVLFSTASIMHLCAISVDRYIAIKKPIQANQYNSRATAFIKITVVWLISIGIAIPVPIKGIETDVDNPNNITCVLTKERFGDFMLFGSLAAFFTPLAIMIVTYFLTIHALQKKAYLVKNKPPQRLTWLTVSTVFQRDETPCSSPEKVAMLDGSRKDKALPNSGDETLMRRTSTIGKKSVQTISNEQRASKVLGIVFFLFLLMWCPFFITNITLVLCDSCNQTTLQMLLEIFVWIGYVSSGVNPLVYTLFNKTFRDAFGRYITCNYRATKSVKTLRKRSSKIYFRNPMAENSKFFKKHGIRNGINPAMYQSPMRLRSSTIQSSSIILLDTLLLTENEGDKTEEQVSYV
Assay type: functional, cell-based

Exam item: Provide AC50 value for the following compound: NS(=O)(=O)c1cc(C2(O)NC(=O)c3ccccc32)ccc1Cl (stereo not drawn) [CHLORTHALIDONE]
Marked response: > 10 µM

Exam item: For the compound NC(=O)c1ncn([C@@H]2O[C@H](CO)[C@@H](O)[C@H]2O)n1 [RIBAVIRIN] , report AC50.
Marked response: > 10 µM

Exam item: Indicate its recorded AC50; the compound in question is CC(=O)/N=c1/sc(S(N)(=O)=O)nn1C [METHAZOLAMIDE]
Marked response: > 10 µM

Exam item: Look up and state reported AC50 for Nc1ccn([C@@H]2O[C@H](CO)[C@@H](O)C2(F)F)c(=O)n1 [GEMCITABINE]
Marked response: > 10 µM

Exam item: Annotate the compound CC#CCn1c(N2CCC[C@@H](N)C2)nc2c1c(=O)n(Cc1nc(C)c3ccccc3n1)c(=O)n2C [LINAGLIPTIN] with its measured AC50.
Marked response: > 10 µM

Exam item: Output AC50 of CCCN(CCc1cccs1)[C@H]1CCc2c(O)cccc2C1 [ROTIGOTINE]
Marked response: 0.43 µM

Exam item: State its AC50: O=C1CN=C(c2ccccc2)c2cc(Cl)ccc2N1 [NORDAZEPAM]
Marked response: > 10 µM

Exam item: # return recorded AC50 for entry C#C[C@]1(O)CC[C@H]2[C@@H]3CCC4=CC(=O)CCC4=C3C=C[C@@]21CC [GESTRINONE]
Marked response: > 30 µM

Exam item: Look up AC50 of CO/N=C(\C(=O)N[C@@H]1C(=O)N2C(C(=O)[O-])=C(C[n+]3cccc4c3CCC4)CS[C@H]12)c1csc(N)n1 [CEFPIROME] and report it.
Marked response: > 30 µM

Exam item: Could you please provide reported AC50 for CC(C)(C)NCC(O)c1cc(Cl)c(N)c(Cl)c1 (stereo not drawn) [CLENBUTEROL] ? Thanks!
Marked response: > 30 µM

Exam item: Quickly give me recorded AC50 for O=C(O)c1ccccc1OP(=O)(O)O [FOSFOSAL]
Marked response: > 30 µM

Exam item: Consider the compound O=C(Nc1c(Cl)cncc1Cl)c1ccc(OC(F)F)c(OCC2CC2)c1 [ROFLUMILAST] . State its measured AC50.
Marked response: > 30 µM

Exam item: Supply AC50 value. Item: Cc1cnc(NC(=O)C2=C(O)c3ccccc3S(=O)(=O)N2C)s1 [MELOXICAM]
Marked response: > 10 µM

Exam item: Tell me measured AC50 for C[C@]12CC[C@H](O)CC1=CC[C@@H]1[C@@H]2CC[C@]2(C)C(c3cccnc3)=CC[C@@H]12 [ABIRATERONE] please.
Marked response: > 10 µM

Exam item: # return recorded AC50 for input N#C[C@@H]1CCCN1C(=O)CNC12CC3CC(CC(O)(C3)C1)C2 [VILDAGLIPTIN]
Marked response: > 30 µM

Exam item: Give recorded AC50. C=C[C@@]1(C)CC(=O)[C@]2(O)[C@@]3(C)[C@@H](O)CCC(C)(C)[C@@H]3[C@H](OC(=O)CCN(C)C)[C@H](OC(C)=O)[C@@]2(C)O1
Marked response: > 30 µM

Exam item: Please look at this compound and report its AC50: Cc1ccc2c(-c3ccccc3)nc(=O)n(C(C)C)c2c1 [PROQUAZONE]
Marked response: > 30 µM

Exam item: Give the value of AC50 reported for the following: CNC[C@H](O)c1cccc(O)c1 [PHENYLEPHRINE]
Marked response: > 30 µM
